# assayedSystem: PKA (Homo sapiens, UniProt P17612)
# Construct: His; purchased PanVera, USA #R3791; host or cells: E. coli
# protocolNotes: Biochemical PKA assay (flashplate)
# statedConditions: 100 nM ATP; read-out: PKA inhibition: −log IC50 (converted)
Each entry below carries its reported IC50.

>  <compound>
COc1cccc(-c2ccc(-c3cc4ccnn4c(Nc4ccc(NC(=O)c5ccc(CN)cc5)cc4)n3)cc2)c1 [Example 59]

>  <assayedSystem>
PKA (Homo sapiens, UniProt P17612)

>  <IC50>
6.31 to 100 µM

$$$$
>  <compound>
O=C(Nc1ccc(Nc2nc(-c3cccc4c3oc3ccccc34)cc3ccnn23)cc1)c1ccc2c(c1)CCNC2 [Example 58]

>  <assayedSystem>
PKA (Homo sapiens, UniProt P17612)

>  <IC50>
> 100 µM

$$$$
>  <compound>
Cn1cc(-c2ccc(-c3cc4ccnn4c(Nc4ccc(NC(=O)c5ccc(CN)cc5)cc4)n3)cc2)cn1 [Example 61]

>  <assayedSystem>
PKA (Homo sapiens, UniProt P17612)

>  <IC50>
6.31 to 100 µM

$$$$
>  <compound>
NCc1ccc(C(=O)Nc2ccc(Nc3nc(-c4ccc(-c5ccccc5F)cc4)cc4ccnn34)cc2)cc1 [Example 69]

>  <assayedSystem>
PKA (Homo sapiens, UniProt P17612)

>  <IC50>
6.31 to 100 µM

$$$$
>  <compound>
NCc1ccc(C(=O)Nc2ccc(Nc3nc(-c4cccc5c4oc4ccccc45)cc4ccnn34)cc2)cn1 [Example 29]

>  <assayedSystem>
PKA (Homo sapiens, UniProt P17612)

>  <IC50>
> 100 µM

$$$$
>  <compound>
NCCC(C(=O)Nc1ccc(Nc2nc(-c3cccc4c3oc3ccccc34)cc3ccnn23)cc1)c1ccc(Cl)c(Cl)c1 (racemic) [Example 43]

>  <assayedSystem>
PKA (Homo sapiens, UniProt P17612)

>  <IC50>
6.31 to 100 µM

$$$$
>  <compound>
NCC(C(=O)Nc1cccc(Nc2nc(-c3cccc4c3oc3ccccc34)cc3ccnn23)c1)c1ccc(Cl)c(Cl)c1 (racemic) [Example 41]

>  <assayedSystem>
PKA (Homo sapiens, UniProt P17612)

>  <IC50>
> 100 µM

$$$$

----------
# assayedSystem: GST-ΔPH-Akt1 (Homo sapiens)
# Construct: named GST-deltaPH-Akt1; 107-480aa; cloned in the pAcGl vector; GST (N)
# Sequence (P31749 107-480, stated change not applied): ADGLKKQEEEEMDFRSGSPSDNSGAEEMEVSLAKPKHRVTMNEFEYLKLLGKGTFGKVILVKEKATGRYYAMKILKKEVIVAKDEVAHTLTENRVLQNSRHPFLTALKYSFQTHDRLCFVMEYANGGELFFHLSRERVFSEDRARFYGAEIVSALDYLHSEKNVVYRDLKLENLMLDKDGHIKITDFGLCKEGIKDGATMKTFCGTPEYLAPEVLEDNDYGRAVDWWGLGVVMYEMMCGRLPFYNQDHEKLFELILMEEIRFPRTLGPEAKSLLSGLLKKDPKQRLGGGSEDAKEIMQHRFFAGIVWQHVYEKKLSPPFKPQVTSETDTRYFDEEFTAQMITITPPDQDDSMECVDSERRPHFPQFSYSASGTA
# protocolNotes: Biochemical ΔPH Akt1 assay (flashplate, 33P incorporation into histone 2B)
# statedConditions: 100 nM ATP, histone 2B substrate; read-out: ΔPHAkt1 inhibition: IC50
attributeMeasured: IC50

>  <querySmiles>
NCc1ccc(C(=O)Nc2ccc(Nc3nc(-c4cccc(-c5ccccc5)c4)cc4ccnn34)cc2)cc1

>  <observed>
≤ 2450 nM

$$$$
>  <querySmiles>
COc1ccc(-c2ccc(-c3cc4c(Br)cnn4c(Nc4ccc(NC(=O)c5ccc(CN)cc5)cc4)n3)cc2)cc1

>  <observed>
≤ 1750 nM

$$$$
>  <querySmiles>
O=C(Nc1ccc(Nc2nc(-c3cccc4c3oc3ccccc34)cc3ccnn23)cc1)c1ccc(CNCCO)cc1

>  <observed>
≤ 1750 nM

$$$$
>  <querySmiles>
CC(=O)Nc1cccc(-c2cccc(-c3cc4ccnn4c(Nc4ccc(NC(=O)c5ccc(CN)cc5)cc4)n3)c2)c1

>  <observed>
≤ 2450 nM

$$$$
>  <querySmiles>
NCc1ccc(C(=O)Nc2ccc(Nc3nc(-c4ccc5cc(OCc6ccccc6)ccc5c4)cc4ccnn34)cc2)cc1

>  <observed>
≤ 1750 nM

$$$$
>  <querySmiles>
CCOc1ccc2cc(-c3cc4ccnn4c(Nc4ccc(NC(=O)c5ccc(CN)cc5)cc4)n3)ccc2c1

>  <observed>
≤ 1750 nM

$$$$
>  <querySmiles>
NCc1ccc(C(=O)Nc2ccc(Nc3nc(-c4ccc(-c5ccccc5)nc4)cc4ccnn34)cc2)cc1

>  <observed>
≤ 1750 nM

$$$$
